Values compiled from paper PMC3545278.

- Protocol Details: Ultrafiltration
- Type: in vitro ADME, mouse
- Condition Parameters: mouse, plasma
Counter-ions that a name gives are not always drawn.
Recorded Endpoint: fraction unbound at 20 min, 10 μM

Would you please look over these solved cases?
Nc1ccc(S(=O)(=O)Nc2ncccn2)cc1
0.403
C[C@]12CCC(=O)C=C1CC[C@@H]1[C@@H]2[C@@H](O)C[C@@]2(C)[C@H]1CC[C@]2(O)C(=O)CO [Hydrocortisone]
0.519
CC(C)NCC(O)COc1cccc2ccccc12 (stereo not shown) [Propranolol HCl]
0.326
CC[C@]1(O)C[C@@H]2CN(CCc3c([nH]c4ccccc34)[C@@](C(=O)OC)(c3cc4c(cc3OC)N(C)[C@H]3[C@@](O)(C(=O)OC)[C@H](OC(C)=O)[C@]5(CC)C=CCN6CC[C@]43[C@@H]65)C2)C1
0.174
COc1ccc2c(c1)c(CC(=O)O)c(C)n2C(=O)c1ccc(Cl)cc1
0.011

[P] Cc1nnc(NS(=O)(=O)c2ccc(N)cc2)s1
[Q] Cc1ccnc(NS(=O)(=O)c2ccc(N)cc2)n1
Could you check which of P and Q has a smaller value for fraction unbound at 20 min, 10 μM? In your reply, give the label of the chosen option.
Q
(Q: 0.184, P: 0.348)
